# TARGET ENTITY: Stb5 (UniProt P38699)
# Sequence: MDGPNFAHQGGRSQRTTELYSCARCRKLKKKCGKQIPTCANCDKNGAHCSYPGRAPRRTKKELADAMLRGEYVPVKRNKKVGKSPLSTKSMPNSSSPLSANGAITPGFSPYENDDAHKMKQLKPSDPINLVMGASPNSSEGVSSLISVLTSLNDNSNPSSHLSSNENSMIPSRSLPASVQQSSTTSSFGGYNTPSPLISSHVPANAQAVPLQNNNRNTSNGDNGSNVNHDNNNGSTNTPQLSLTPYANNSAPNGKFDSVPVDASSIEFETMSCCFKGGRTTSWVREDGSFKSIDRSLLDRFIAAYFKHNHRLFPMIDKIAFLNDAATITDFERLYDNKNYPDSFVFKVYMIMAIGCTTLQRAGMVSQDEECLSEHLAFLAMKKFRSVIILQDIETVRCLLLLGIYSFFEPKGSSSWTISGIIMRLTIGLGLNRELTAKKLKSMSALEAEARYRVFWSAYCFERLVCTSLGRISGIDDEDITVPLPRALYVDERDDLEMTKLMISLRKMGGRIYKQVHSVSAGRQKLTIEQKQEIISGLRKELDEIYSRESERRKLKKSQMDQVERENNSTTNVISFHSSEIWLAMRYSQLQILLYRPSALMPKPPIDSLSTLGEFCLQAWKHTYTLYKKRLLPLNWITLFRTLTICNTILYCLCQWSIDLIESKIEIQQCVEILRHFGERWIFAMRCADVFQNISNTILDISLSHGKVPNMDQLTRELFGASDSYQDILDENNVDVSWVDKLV
# EXPERIMENTAL PROTOCOL: PBM E-score (8-mer binding enrichment) (E-score (-0.5 to 0.5)); higher = stronger / more preferred TF binding
# SETUP CONDITIONS: protein concentration: 200 nM; construct: GST-full length
The full ranking holds about 33,000 sequences; the median of “E-score (-0.5 to 0.5)” is about -0.054, and the highest 2% start at about 0.35. The list comes from a sample in which the highest values are over-represented; it also holds close analogues and randomly drawn sequences.

# ORDERED RESIDUES, PBM E-score
measured = [
    ("AGACTTAC", -0.161),
    ("GGAGTTTA", 0.362),
    ("CCATTGCG", 0.116),
    ("AGCCTGCC", -0.229),
    ("CTTTTTGA", -0.162),
    ("AGGTGTGA", 0.00067),
]

----------
# TARGET ENTITY: Stb5 (UniProt P38699)
# Sequence: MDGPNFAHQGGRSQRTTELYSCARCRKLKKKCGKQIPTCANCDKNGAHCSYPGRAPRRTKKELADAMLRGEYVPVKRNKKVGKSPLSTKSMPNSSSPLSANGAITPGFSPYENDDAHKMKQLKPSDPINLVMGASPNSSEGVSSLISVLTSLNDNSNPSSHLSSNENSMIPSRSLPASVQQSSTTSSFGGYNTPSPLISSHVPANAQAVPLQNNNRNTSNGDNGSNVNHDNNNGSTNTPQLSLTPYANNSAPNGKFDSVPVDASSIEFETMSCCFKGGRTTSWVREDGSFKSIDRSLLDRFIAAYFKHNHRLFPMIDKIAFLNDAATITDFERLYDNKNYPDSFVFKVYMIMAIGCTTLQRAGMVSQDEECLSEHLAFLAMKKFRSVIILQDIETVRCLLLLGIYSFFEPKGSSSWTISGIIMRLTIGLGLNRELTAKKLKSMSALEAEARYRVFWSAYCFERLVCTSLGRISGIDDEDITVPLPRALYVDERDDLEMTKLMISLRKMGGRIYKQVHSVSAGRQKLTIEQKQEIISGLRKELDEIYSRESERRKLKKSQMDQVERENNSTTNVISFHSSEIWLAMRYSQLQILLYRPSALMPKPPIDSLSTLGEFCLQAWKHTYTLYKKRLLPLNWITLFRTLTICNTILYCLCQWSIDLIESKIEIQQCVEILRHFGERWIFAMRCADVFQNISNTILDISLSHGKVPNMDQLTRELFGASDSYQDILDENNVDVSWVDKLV
# EXPERIMENTAL PROTOCOL: PBM E-score (8-mer binding enrichment) (E-score (-0.5 to 0.5)); higher = stronger / more preferred TF binding
# SETUP CONDITIONS: protein concentration: 200 nM; construct: GST-full length
Over roughly 33,000 sequences, “E-score (-0.5 to 0.5)” has its median near -0.054; the highest 2% begin near 0.35. Only a selection was taken, and the highest values are over-represented in it overall.
Criterion: PBM E-score meeting or surpassing 0.3. Met: true (1). Not met: false (0).

# ORDERED RESIDUES, LABEL CLASS
data = [
    ("ATCGCCTG", "false (0)"),
    ("CGTGTTAA", "false (0)"),
    ("ACTGCTTG", "false (0)"),
    ("ATATGAAA", "false (0)"),
    ("CGTGTTAC", "false (0)"),
    ("AGACGCCC", "false (0)"),
    ("CAACCGTC", "false (0)"),
    ("GTACTCCA", "false (0)"),
    ("ATCGCCGG", "true (1)"),
    ("AAACGCCA", "false (0)"),
    ("GTCCGAAA", "false (0)"),
    ("CCTCTAAA", "false (0)"),
    ("AAAGTAAG", "false (0)"),
    ("CAATTAAA", "false (0)"),
    ("ACGTGGGA", "false (0)"),
    ("ACCGGTAA", "true (1)"),
    ("ACACCGCA", "true (1)"),
    ("ATGTCCCG", "false (0)"),
    ("TCTTTACA", "false (0)"),
    ("AGGCCGAC", "true (1)"),
    ("CCGTTACC", "false (0)"),
    ("CCACCGCA", "false (0)"),
    ("CTATGCGC", "false (0)"),
    ("ATGTCCGA", "true (1)"),
    ("AATATGCT", "false (0)"),
    ("AGGGGCGG", "true (1)"),
    ("CTCTAGAC", "false (0)"),
    ("ATTCGCAC", "false (0)"),
    ("TGTGTTAA", "false (0)"),
    ("GCACCTCA", "false (0)"),
    ("TACGGGCA", "false (0)"),
    ("GACGGTGA", "true (1)"),
    ("ATCCGACA", "false (0)"),
    ("ATACCGCA", "true (1)"),
    ("ATTGAAAT", "false (0)"),
    ("ACCGGTAT", "true (1)"),
    ("AGTGTTTA", "false (0)"),
    ("ATGTCCGC", "true (1)"),
    ("CGGCCGAC", "false (0)"),
    ("CAGAGGGA", "false (0)"),
]

# credit: the supplement of paper PMC3334620
